From: ChEMBL document CHEMBL1154700

Species: Homo sapiens
assayName: Inhibition of human 5 alpha reductase assessed as -log of ratio of IC50 of drug to the IC50 of reference compound
recordedEndpoint: -log(RatioIC50)
Please respond with just the number, no unit label.

Record summary for COC(=O)[C@@H](C)[C@H]1CC[C@H]2[C@@H]3CC[C@H]4N(C)C(=O)C=C[C@]4(C)[C@H]3CC[C@]12C : reported -log(RatioIC50) = -2.18

Memo: CC(C)N(C(=O)[C@H]1CC[C@H]2[C@@H]3CC=C4N(C)C(=O)CC[C@]4(C)[C@H]3CC[C@]12C)C(C)C , reported -log(RatioIC50): -0.204

Just so you know, measured -log(RatioIC50) for C[C@]12C=CC(=O)N[C@@H]1CC[C@@H]1[C@@H]2CC[C@]2(C)[C@@H](O)CC[C@@H]12 came out at -2

Documented -log(RatioIC50) of CN1C(=O)C=C[C@]2(C)[C@H]3CC[C@]4(C)[C@@H](C(=O)NC(C)(C)C)CC[C@H]4[C@@H]3CC[C@@H]12 : -0.778

Record CN1C(=O)C=C[C@]2(C)[C@H]3CC[C@]4(C)[C@@H](C(=O)NC(C)(C)CC(C)(C)C)CC[C@H]4[C@@H]3CC[C@@H]12 . Reported -log(RatioIC50): -0.477

-log(RatioIC50) in this record for CC(C)N(C(=O)[C@H]1CC[C@H]2[C@@H]3CC[C@H]4NC(=O)C=C[C@]4(C)[C@H]3CC[C@]12C)C(C)C : -0.204

What the record says about C[C@]12C=CC(=O)N[C@@H]1CC[C@@H]1[C@@H]2CC[C@@]2(C)[C@H]1CC[C@@]21CCCO1 : -log(RatioIC50) is -3

Input CCNC(=O)[C@H]1CC[C@H]2[C@@H]3CC[C@H]4N(C)C(=O)C=C[C@]4(C)[C@H]3CC[C@]12C . Output -log(RatioIC50): -2.18

// -log(RatioIC50) lookup, compound = CCN(CC)C(=O)/C=C/[C@H]1CC[C@H]2[C@@H]3CC[C@H]4N(C)C(=O)CC[C@]4(C)[C@H]3CC[C@]12C , result: -0.301

For CCOC(=O)/C=C1\CC[C@H]2[C@@H]3CC=C4N(C)C(=O)CC[C@]4(C)[C@H]3CC[C@]12C the compound record lists -log(RatioIC50) as -2

-log(RatioIC50) reading for CCN(CC)C(=O)[C@H]1CC[C@H]2[C@@H]3CC=C4N(C)C(=O)CC[C@]4(C)[C@H]3CC[C@]12C : -0.653

Briefly, -log(RatioIC50) measured for CC(C)N(C(=O)[C@H]1CC[C@H]2[C@@H]3CC[C@H]4N(C)C(=O)C=C[C@]4(C)[C@H]3CC[C@]12C)C(C)C : -1

Sample COC(=O)[C@@H](C)[C@H]1CC[C@H]2[C@@H]3CC[C@H]4NC(=O)C=C[C@]4(C)[C@H]3CC[C@]12C ; -log(RatioIC50) observed: -1.48

The compound listed as CCC(C)C(=O)[C@H]1CC[C@H]2[C@@H]3CC[C@H]4N(C)C(=O)C=C[C@]4(C)[C@H]3CC[C@]12C (stereo not given in full) has a reported -log(RatioIC50) of -1.7

Lab note: CNC(=O)[C@H]1CC[C@H]2[C@@H]3CC=C4N(C)C(=O)CC[C@]4(C)[C@H]3CC[C@]12C gave -log(RatioIC50) of -1.57

* * *

Give -log(RatioIC50) for every item shown.
Species: Homo sapiens
assayName: Inhibition of human 5 alpha reductase assessed as -log of ratio of IC50 of drug to the IC50 of reference compound

Please fill in: -log(RatioIC50) reported for CC(C)CC(=O)[C@H]1CC[C@H]2[C@@H]3CC[C@H]4N(C)C(=O)C=C[C@]4(C)[C@H]3CC[C@]12C = -1.48

Measured -log(RatioIC50), CC(C)N(C(=O)[C@H]1CC[C@H]2[C@@H]3CC=C4N(C)C(=O)C=C[C@]4(C)[C@H]3CC[C@]12C)C(C)C : -1.43

Lab book: -log(RatioIC50) of CCN(CC)C(=O)[C@H]1CC[C@H]2[C@@H]3CC[C@H]4NC(=O)C=C[C@]4(C)[C@H]3CC[C@]12C noted as -0.785

In plain terms, CC(C)(C)NC(=O)[C@H]1CC[C@H]2[C@@H]3CC[C@H]4NC(=O)C=C[C@]4(C)[C@H]3CC[C@]12C has a documented -log(RatioIC50) of 0.26

For reference, reported -log(RatioIC50) for C[C@]12C=CC(=O)N[C@@H]1CC[C@@H]1[C@@H]2CC[C@]2(C)[C@@H](C(=O)c3ccc[nH]3)CC[C@@H]12 stands at -1

Field -log(RatioIC50) (entry CCN(CC)C(=O)[C@H]1CC[C@H]2[C@@H]3CC[C@H]4N(C)C(=O)C=C[C@]4(C)[C@H]3CC[C@]12C ) reads -1.34

Item: CC(C)(C)CC(C)(C)NC(=O)[C@H]1CC[C@H]2[C@@H]3CC[C@H]4NC(=O)C=C[C@]4(C)[C@H]3CC[C@]12C | -log(RatioIC50): -0.079

Documented -log(RatioIC50) of CN1C(=O)C=C[C@]2(C)[C@H]3CC[C@]4(C)[C@@H](C(=O)c5ccc[nH]5)CC[C@H]4[C@@H]3CC[C@@H]12 : -1.52

For this molecule ( CC(C)CC(=O)[C@H]1CC[C@H]2[C@@H]3CC[C@H]4NC(=O)C=C[C@]4(C)[C@H]3CC[C@]12C ), measured -log(RatioIC50) is -0.255

Looking up CN1C(=O)C=C[C@]2(C)[C@H]3CC[C@@]4(C)[C@@H](CC[C@@]45CCCO5)[C@@H]3CC[C@@H]12 , I found its -log(RatioIC50) recorded as -3.1

Record summary for CC(C)N(C(=O)[C@H]1CC[C@H]2[C@@H]3CC=C4NC(=O)CC[C@]4(C)[C@H]3CC[C@]12C)C(C)C : reported -log(RatioIC50) = -0.602

So for C[C@]12C=CC(=O)N[C@@H]1CC[C@@H]1[C@@H]2CC[C@]2(C)[C@@H](C(N)=O)CC[C@@H]12 , the logged -log(RatioIC50) turned out to be -1.92

* * *

Exercise: for every item that follows, state its recorded -log(RatioIC50).
Species on record: Homo sapiens
assayName: Inhibition of human 5 alpha reductase assessed as -log of ratio of IC50 of drug to the IC50 of reference compound
Keep the answer to the number alone.

// recorded -log(RatioIC50) for CCC(C)C(=O)[C@H]1CC[C@H]2[C@@H]3CC[C@H]4NC(=O)C=C[C@]4(C)[C@H]3CC[C@]12C (some centres undefined) : -0.881

Recorded result, C[C@]12C=CC(=O)N[C@@H]1CC[C@@H]1[C@@H]2CC[C@]2(C)[C@@H](C(=O)Sc3ccccn3)CC[C@@H]12 , -log(RatioIC50): 0

# -log(RatioIC50) of CCNC(=O)[C@H]1CC[C@H]2[C@@H]3CC[C@H]4NC(=O)C=C[C@]4(C)[C@H]3CC[C@]12C = -1.18

// sample COC(=O)[C@H]1CC[C@H]2[C@@H]3CC[C@H]4NC(=O)C=C[C@]4(C)[C@H]3CC[C@]12C , its -log(RatioIC50) was -1.56
